System: biotinyl-Ile-oxazolone
procedure-details: self-aminoacylation, catalytic enhancement (BIO) (fold over background); higher = more active; k-Seq, kA / k0A0; sequences stand for … in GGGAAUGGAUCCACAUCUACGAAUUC…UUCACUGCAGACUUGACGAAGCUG
This sample holds only a part of the variants without activity.
endpoint-label: self-aminoacylation
// return just the number, without any unit appended

Recorded self-aminoacylation, per entry:
Req: Returns the measured self-aminoacylation for the input sequence. Input: CCACACAUCAAGGAAUCGGUC [Fam1B.1 aminoacylation ribozyme variant]
Resp: 1.04

Req: Likewise for CUACUUCAAACAUUCGGUCUU [Fam1A.1 aminoacylation ribozyme variant] ?
Resp: 1.15

Req: Likewise for CAACACUUCAAGCAAUCAGUC [Fam1B.1 aminoacylation ribozyme variant] ?
Resp: 0.858

Req: Likewise for AAGUUUGCUAAUAGUCGCCAG [Fam3.1 aminoacylation ribozyme variant] ?
Resp: 1.02

Req: Likewise for UUUACCCUGGUCAGCGAGUGA [Fam2.1 aminoacylation ribozyme variant] ?
Resp: 3.46

Others:
Req: Returns the measured self-aminoacylation for the input sequence. Input: CAACACUUCAAGCAAGCGGUC [Fam1B.1 aminoacylation ribozyme variant]
Resp: 1.1

Req: Likewise for AUUACCCUGGUCAUCGAGAGA [Fam2.1 aminoacylation ribozyme variant] ?
Resp: 1.28

Req: Likewise for CUACCUCAAACAAUCGGUCUU [Fam1A.1 aminoacylation ribozyme variant] ?
Resp: 0.996

Req: Likewise for AAGUUUUCUAAUAGUCGCAAG [Fam3.1 aminoacylation ribozyme variant] ?
Resp: 1.51

Req: Likewise for UUUCACCUAGGUCAUGGGGUG [Fam2.2 aminoacylation ribozyme variant] ?
Resp: 3.19

Req: Likewise for GUACUUCAAACAACCGGUCUG [Fam1A.1 aminoacylation ribozyme variant] ?
Resp: 1.67

Req: Likewise for AAGUUUGCUAGUUGUCGCAAG [Fam3.1 aminoacylation ribozyme variant] ?
Resp: 1.07

Req: Likewise for AAUCACCUAGGUCAACGGGUG [Fam2.2 aminoacylation ribozyme variant] ?
Resp: 2.29

Req: Likewise for CCCCACUUCAAGCAAUCGUUC [Fam1B.1 aminoacylation ribozyme variant] ?
Resp: 0.898

Req: Likewise for AAGUUUGCUAAUAUUCGCAUG [Fam3.1 aminoacylation ribozyme variant] ?
Resp: 1.14

Req: Likewise for CUACUUGGAACAAUCGGUCUG [Fam1A.1 aminoacylation ribozyme variant] ?
Resp: 0.831

Req: Likewise for CCACACUUCAACCAAUCGGUG [Fam1B.1 aminoacylation ribozyme variant] ?
Resp: 3.05

Req: Likewise for AUGCACCUAGGUCAUCGGGUU [Fam2.2 aminoacylation ribozyme variant] ?
Resp: 3.66

====

self-aminoacylation values, listed per item
Test system: biotinyl-Met-oxazolone
procedure-details: self-aminoacylation, catalytic enhancement (BMO) (fold over background); higher = more active; k-Seq, kA / k0A0; sequences stand for … in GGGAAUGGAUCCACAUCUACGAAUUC…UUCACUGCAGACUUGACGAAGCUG
Fewer inactive variants are shown than the library holds.

Req: Returns the measured self-aminoacylation for the input sequence. Input: GCACACUUCAAGCAAUCGGUA [Fam1B.1 aminoacylation ribozyme variant]
Resp: 1.98

Req: Likewise for AUUACCCUUGUCAUUGAGUGA [Fam2.1 aminoacylation ribozyme variant] ?
Resp: 8.1

Attention now shifts to the item below.
Req: Returns the measured self-aminoacylation for the input sequence. Input: AAGGCUGCUAAUAGUCGCAAG [Fam3.1 aminoacylation ribozyme variant]
Resp: 2.04
